# Test system: SEM cells
# Assay: AUC of viability dose-response curve (% viability x log10 dose units); higher = less sensitive
# Condition Summary: HPLM + 10% dialyzed FBS; 48 h
Reported Property: AUC of viability dose-response curve

The following molecules have reported results that may help.
CC(C)c1cnn2c(NCc3ccccc3)cc(N[C@@H](CO)[C@H](O)CO)nc12; 299
COc1cc2nc(N(C)CCCNC(=O)C3CCCO3)nc(N)c2cc1OC (stereo not given); 358
Cc1c(CCOc2ccc(C(=O)O)cc2)c2cc(Cl)ccc2n1C(c1ccccc1)c1ccccc1; 470

Would you kindly look at the next entry?
In: I have this molecule here, `CC[C@H](CC#N)OC(=O)N[C@@H](C)c1cccc(NC(=O)Nc2ccc(-c3cnco3)c(OC)c2)c1` , and I need its recorded AUC of viability dose-response curve.
Out: 356

====

# Test system: SEM cells
# Assay: cell viability relative to DMSO control; higher = less cytotoxic
# Condition Summary: RPMI 5 mM glucose + 10% FBS; 48 h; 0.569 µM
Reported Property: cell viability (%)
The response must be a number in % with no trailing unit.

O=C([O-])C(O)Cc1ccc(O)c(O)c1 (centres undefined); 87.3
CN(c1ncccc1CNc1nc(Nc2ccc3c(c2)CC(=O)N3)ncc1C(F)(F)F)[S+](C)(=O)[O-]; 99
CC(C)n1c(/C=C/[C@H](O)C[C@H](O)CC(=O)O)c(-c2ccc(F)cc2)c2ccccc21; 106
CC(=O)Nc1ccc(OC[C@](C)(O)C(=O)Nc2ccc([N+](=O)[O-])c(C(F)(F)F)c2)cc1; 88.8
CC(=O)Oc1ccccc1C(=O)O; 120

In: I have this compound here, CCN(CC)CC#CCOC(=O)C(O)(c1ccccc1)C1CCCCC1 (centres undefined) , and I need its recorded cell viability.
Out: 118

In: I have this compound here, `COC1=NC(=NC(=C1N\C2=N\CCN2)Cl)C` , and I need its recorded cell viability.
Out: 106

In: I have this compound here, CC1CCC(C(=O)N(c2cc(C#CC(C)(C)C)sc2C(=O)O)C2CCC(O)CC2)CC1 (centres undefined) , and I need its recorded cell viability.
Out: 110

In: I have this compound here, `C=C(C)[C@@H]1CC[C@]2(C(=O)O)CC[C@]3(C)[C@H](CC[C@@H]4[C@@]5(C)CC[C@H](O)C(C)(C)[C@@H]5CC[C@]43C)[C@@H]12` , and I need its recorded cell viability.
Out: 128

====

# Tested on: P12-Ichikawa
# Assay: cell viability relative to DMSO control; higher = less cytotoxic
# Condition Summary: RPMI 5 mM glucose + 10% FBS; 48 h; 46.1 µM
Reported Property: cell viability (%)
The response must be a number in % with no trailing unit.

The following compounds have reported results that may help.
O=NN(CCCl)C(=O)NC1CCCCC1; 111
C=C(C)[C@@H]1CC[C@]2(C(=O)O)CC[C@]3(C)[C@H](CC[C@@H]4[C@@]5(C)CC[C@H](O)C(C)(C)[C@@H]5CC[C@]43C)[C@@H]12; 103
C/C=C(/C)C(=O)O[C@H]1C(C)=C2[C@H]([C@@H]1OC(=O)CCCCCCC)[C@@](C)(OC(C)=O)C[C@H](OC(=O)CCC)[C@@]1(O)[C@H]2OC(=O)[C@@]1(C)O; 42.4
CC(=O)O[C@H]1C(=O)[C@]2(C)[C@@H](O)C[C@H]3OC[C@@]3(OC(C)=O)C2[C@H](OC(=O)C4=CC=CC=C4)[C@]5(O)C[C@H](OC(=O)[C@H](O)[C@@H](NC(=O)C6=CC=CC=C6)C7=CC=CC=C7)\C(=C1/C5(C)C)C (stereo partly specified); 14.3

In: I have this compound here, `CC(=O)Oc1ccccc1C(=O)O` , and I need its recorded cell viability.
Out: 99.3

In: I have this compound here, `NC1(Cc2ccc(Cl)cc2)CCN(c2ncnc3[nH]ccc23)CC1` , and I need its recorded cell viability.
Out: 28.5

In: I have this compound here, C[C@]\12CC[C@H](O)CC1=C/CC3C2CC[C@@]\4(C)C3C\C=C4[N]5C=NC6=C5C=CC=C6 (stereo partly specified) , and I need its recorded cell viability.
Out: 98.5

In: I have this compound here, `Cc1ccc(NC(=O)c2ccc(CN3CCN(C)CC3)cc2)cc1Nc1nc(-c2cccnc2)cs1` , and I need its recorded cell viability.
Out: 49.7

In: I have this compound here, `CN(c1ncccc1CNc1nc(Nc2ccc3c(c2)CC(=O)N3)ncc1C(F)(F)F)[S+](C)(=O)[O-]` , and I need its recorded cell viability.
Out: 50.1

In: I have this compound here, `Cn1c(=O)c2c(ncn2C)n(C)c1=O.O=C(O)CC(O)(CC(=O)O)C(=O)O` , and I need its recorded cell viability.
Out: 107

In: I have this compound here, `CC[C@H](CC#N)OC(=O)N[C@@H](C)c1cccc(NC(=O)Nc2ccc(-c3cnco3)c(OC)c2)c1` , and I need its recorded cell viability.
Out: 30.4

# credit: the supplement of paper PMC11451515
